All values here come from the Human Domainome abundance scans (Beltran et al. 2025).

# Lookup of reported abundance fitness keyed by entry
B1: Retinoic acid receptor RXR-alpha, residues 132 to 208; numbered along this chain, P19793 (parent)
chain: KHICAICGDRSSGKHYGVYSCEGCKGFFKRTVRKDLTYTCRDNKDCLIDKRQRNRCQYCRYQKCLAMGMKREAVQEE

Variants of: B1
Test: abundance fitness (aPCA) (normalised: wild type 0, dead -1); higher = more abundant; growth selection in yeast, the domain comes from the species named
Conditions: Homo sapiens
// return a plain number; no unit text

* R41V | -0.01

Look at this variant and give its reported abundance fitness. `R10H`
-0.051
